target: SIRT1 (Homo sapiens, UniProt Q96EB6); assay: SIRT1 deacetylation of Trp 5-mer peptide, OAADPr mass spec assay; details: Trp SIRT1_IC50, Trp 5-mer peptide; class symbols
Sequence (Q96EB6 whole entry): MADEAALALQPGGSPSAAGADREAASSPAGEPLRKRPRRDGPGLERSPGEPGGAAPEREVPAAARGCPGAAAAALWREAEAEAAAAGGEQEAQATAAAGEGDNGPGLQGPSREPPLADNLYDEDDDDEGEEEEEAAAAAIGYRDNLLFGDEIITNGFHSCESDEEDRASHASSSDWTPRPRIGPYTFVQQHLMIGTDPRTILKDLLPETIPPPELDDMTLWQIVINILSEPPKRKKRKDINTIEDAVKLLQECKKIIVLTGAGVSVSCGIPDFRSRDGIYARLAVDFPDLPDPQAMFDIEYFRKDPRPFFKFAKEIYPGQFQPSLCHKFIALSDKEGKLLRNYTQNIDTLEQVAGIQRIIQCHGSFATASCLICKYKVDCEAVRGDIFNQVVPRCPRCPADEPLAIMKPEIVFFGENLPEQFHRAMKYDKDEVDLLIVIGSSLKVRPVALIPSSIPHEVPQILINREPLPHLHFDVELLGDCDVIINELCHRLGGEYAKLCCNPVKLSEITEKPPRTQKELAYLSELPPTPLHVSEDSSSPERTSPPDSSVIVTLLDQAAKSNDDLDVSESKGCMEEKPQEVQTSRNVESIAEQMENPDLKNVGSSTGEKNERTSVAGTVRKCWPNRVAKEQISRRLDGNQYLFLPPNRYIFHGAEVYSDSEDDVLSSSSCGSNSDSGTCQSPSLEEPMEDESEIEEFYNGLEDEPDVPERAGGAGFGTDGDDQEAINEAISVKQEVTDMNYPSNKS
pIC50: −log10 of the molar value.
Endpoint label: pIC50

Compound: NC(=O)c1cc2ncnc(N3CCC(CN4CCCC(C(F)(F)F)C4)CC3)c2s1 (stereo not drawn)
Assay target: SIRT1 (Homo sapiens, UniProt Q96EB6)
pIC50: > 6.00
//
Compound: NC(=O)c1cc2ncnc(N3CCN(CCNC(=O)C4CCCC4)CC3)c2o1
Assay target: SIRT1 (Homo sapiens, UniProt Q96EB6)
pIC50: > 6.00

Next, consider the following compound.
Note to self: pIC50 recorded for Cc1nc(N2CCC(CCN3CCCC3)CC2)c2sc(C(N)=O)cc2n1 was 5.00 to 6.00

----------
biological target: UniProt:Q96EB6; test: SIRT1 deacetylation of Trp 5-mer peptide, OAADPr mass spec assay; conditions: Trp SIRT1_IC50, Trp 5-mer peptide; class symbols
pIC50: −log10 of the molar value.
Endpoint label: pIC50

Solved cases (4 shown):
Compound: NC(=O)c1cc2ncnc(N3CCC(CCNC(=O)c4cccs4)CC3)c2s1
Result value: > 6.00

Compound: NC(=O)c1cc2ncnc(N3CCC(C(=O)N4CCCC4)CC3)c2s1
Result value: < 5.00

Compound: NCCN1CCN(c2ncnc3cc(C(N)=O)sc23)CC1 [Compound 16b]
Result value: 5.00 to 6.00

Compound: CCNC(=O)c1cccc(C(=O)NCCN2CCN(c3ncnc4cc(C(N)=O)sc34)CC2)c1 [Compound 11b]
Result value: > 6.00

Note to self: pIC50 recorded for CC(C)(C)OC(=O)NCCC1CCN(c2ccnc3cc(C(N)=O)sc23)CC1 was > 6.00

Note to self: pIC50 recorded for Cc1nc(N2CCC(CCNC(=O)OC(C)(C)C)CC2)c2sc(C(N)=O)cc2n1 was 5.00 to 6.00

Note to self: pIC50 recorded for CNC(=O)c1cc2ncnc(N3CCC(CCNC(=O)C(C)(C)C)CC3)c2s1 was < 5.00

Note to self: pIC50 recorded for CS(=O)(=O)NCCN1CCN(c2ncnc3cc(C(N)=O)oc23)CC1 was 5.00 to 6.00

Note to self: pIC50 recorded for CC(C)(C)C(=O)NCCN1CCN(c2nccc3cc(C(N)=O)sc23)CC1 was < 5.00

Note to self: pIC50 recorded for Cc1nc(N2CCC(CN3CCCC3)CC2)c2sc(C(N)=O)cc2n1 was < 5.00

Note to self: pIC50 recorded for NC(=O)c1cc2ccnc(N3CCN(CCN4CCCC4)CC3)c2s1 was 5.00 to 6.00

Note to self: pIC50 recorded for CC(C)(C)OC(=O)N1CCC(C2CCN(c3ncnc4cc(C(N)=O)oc34)CC2)CC1 was 5.00 to 6.00

Note to self: pIC50 recorded for CC(C)(C)OC(=O)NCCC1CCN(c2ncnc3cc(C(=O)O)sc23)CC1 was < 5.00

----------
target: SIRT3 (Homo sapiens, UniProt Q9NTG7); experiment: SIRT3 deacetylation of Trp 5-mer peptide, OAADPr mass spec assay; details: SIRT3 IC50, as stated in text
Sequence (Q9NTG7 102-399): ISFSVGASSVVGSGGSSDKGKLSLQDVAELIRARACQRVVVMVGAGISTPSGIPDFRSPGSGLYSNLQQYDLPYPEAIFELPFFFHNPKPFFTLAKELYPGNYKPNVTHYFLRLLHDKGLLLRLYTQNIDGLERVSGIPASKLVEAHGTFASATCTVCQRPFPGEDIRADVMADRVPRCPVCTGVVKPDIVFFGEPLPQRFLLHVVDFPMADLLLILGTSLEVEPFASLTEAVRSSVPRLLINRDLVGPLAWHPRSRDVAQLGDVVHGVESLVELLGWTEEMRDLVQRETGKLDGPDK
Endpoint label: IC50

Note to self: IC50 recorded for CCNC(=O)c1cccc(C(=O)NCCC2CCN(c3ncnc4cc(C(N)=O)sc34)CC2)c1 [Compound 11a] was 1 nM
